Cited source: paper PMC10303271

- target_or_system: D4 (Homo sapiens, UniProt P21917)
- Construct: purchased NIMH Psychoactive Drug Screening Program (PDSP)
- Sequence (P21917 1-419): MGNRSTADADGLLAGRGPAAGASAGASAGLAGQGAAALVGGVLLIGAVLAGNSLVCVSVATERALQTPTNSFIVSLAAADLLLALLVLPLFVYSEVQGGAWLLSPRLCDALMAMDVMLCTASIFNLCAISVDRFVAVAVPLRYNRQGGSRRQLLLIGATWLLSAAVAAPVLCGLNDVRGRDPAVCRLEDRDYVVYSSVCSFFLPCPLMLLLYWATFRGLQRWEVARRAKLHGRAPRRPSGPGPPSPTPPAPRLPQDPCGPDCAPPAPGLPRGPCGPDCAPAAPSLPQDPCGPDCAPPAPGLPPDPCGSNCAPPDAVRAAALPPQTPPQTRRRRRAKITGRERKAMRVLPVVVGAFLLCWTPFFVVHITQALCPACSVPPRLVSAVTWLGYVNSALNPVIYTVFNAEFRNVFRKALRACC
- protocol_text: PDSP primary binding D4
- cond: 1.5 h; primary binding, 10,000 nM; last figure of the line = mean of the 4 before it; read-out: D4, PDSP raw data, mean
Measured inhibition at 10 µM, listed per entry.
Hi! Could you send only the number? It should be in %, unit omitted.

Some entries whose results are on file:
C#Cc1ccc2c(c1)C(c1ccccc1F)=N[C@H](C)c1c(C(=S)N(C)C)ncn1-2	-4.45
C[C@H]1N=C(c2ccccc2F)c2cc(-c3ccccc3)ccc2-n2cnc(C(=O)N(C)C)c21	-4.45
CCc1noc(-c2ncn3c2[C@@H](C)N=C(c2ccccc2F)c2cc(Cl)ccc2-3)n1	-4.5
CCc1noc(-c2ncn3c2CN=C(c2ccccc2F)c2cc(C4CC4)ccc2-3)n1	-4.07
C#Cc1ccc2c(c1)C(c1ccccn1)=N[C@@H](C)c1c(C(=O)N(C)C)ncn1-2	-0.38

**Q:** If you can, please state the reported inhibition at 10 µM value of CC(C)c1noc(-c2ncn3c2[C@@H](C)N=C(c2ccccc2F)c2cc(Cl)ccc2-3)n1 .
**A:** -10.1

**Q:** Query: inhibition at 10 µM; subject: C#Cc1ccc2c(c1)C(c1ccccn1)=N[C@@H](C)c1c(C(=O)NC)ncn1-2
**A:** 3.79

**Q:** Please report the recorded inhibition at 10 µM for CCc1noc(-c2ncn3c2[C@@H](C)N=C(c2ccccc2F)c2cc(C4CC4)ccc2-3)n1 .
**A:** 10.6

###

- target_or_system: DOR (Homo sapiens)
- Construct: purchased NIMH Psychoactive Drug Screening Program (PDSP)
- Sequence (P41143 whole entry): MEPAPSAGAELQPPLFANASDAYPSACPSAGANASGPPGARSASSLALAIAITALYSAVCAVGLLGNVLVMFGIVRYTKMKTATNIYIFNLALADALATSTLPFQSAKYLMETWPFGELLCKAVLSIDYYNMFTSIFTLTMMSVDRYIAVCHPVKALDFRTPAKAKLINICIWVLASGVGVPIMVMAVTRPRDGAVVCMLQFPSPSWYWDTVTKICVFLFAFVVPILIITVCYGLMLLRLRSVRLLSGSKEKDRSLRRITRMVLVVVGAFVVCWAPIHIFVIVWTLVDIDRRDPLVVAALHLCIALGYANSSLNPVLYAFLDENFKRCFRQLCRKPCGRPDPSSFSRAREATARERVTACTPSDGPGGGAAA
- protocol_text: PDSP radioligand binding at DOR
- cond: primary binding, 10,000 nM; last figure of the line = mean of the 4 before it; read-out: DOR, PDSP raw data, mean
measurement_type: inhibition at 10 µM (%)
Dear colleague, please return just the value in %, with no unit written.

Sample records with inhibition at 10 µM:
CCc1noc(-c2ncn3c2CN=C(c2ccccc2F)c2cc(C4CC4)ccc2-3)n1	81.3
CCc1noc(-c2ncn3c2[C@@H](C)N=C(c2ccccc2F)c2cc(-c4ccccc4)ccc2-3)n1	52.7

**Q:** Which inhibition at 10 µM is reported for this compound? C[C@H]1N=C(c2ccccc2F)c2cc(Cl)ccc2-n2cnc(-c3nc(C4CC4)no3)c21
**A:** 42.7

**Q:** State the recorded inhibition at 10 µM for this entry: C[C@H]1N=C(c2ccccc2F)c2cc(-c3ccccc3)ccc2-n2cnc(C(=O)N(C)C)c21
**A:** 43

**Q:** What value of measured inhibition at 10 µM is listed for C#Cc1ccc2c(c1)C(c1ccccc1Cl)=N[C@H](C)c1c(C(=O)N(C)CC)ncn1-2 ?
**A:** 39.5

**Q:** Which value of inhibition at 10 µM has been reported for CCc1noc(-c2ncn3c2[C@@H](C)N=C(c2ccccc2F)c2cc(Cl)ccc2-3)n1 in the records?
**A:** 40.7

**Q:** Which measured inhibition at 10 µM value corresponds to CCc1noc(-c2ncn3c2[C@@H](C)N=C(c2ccccc2F)c2cc(C4CC4)ccc2-3)n1 ?
**A:** 67.3

**Q:** Need inhibition at 10 µM of C#Cc1ccc2c(c1)C(c1ccccc1F)=N[C@H](C)c1c(C(=S)N(C)C)ncn1-2 , thanks.
**A:** 43
